The values you see were collected from patent US20230029453A1.

- MEASURED_TARGET: HLA-B*08:01 (human)
- METHOD: UV peptide exchange; HLA class I ELISA
- MEASUREMENT_SETUP: remark: other sources report otherwise
Parameter: exchange rate with Pos. Scope: all listed entries.

{"BINDER": "CPMSRLRLA (here or on the partner: biotinylated heavy chain) [P46 9-mer … (TP53 R213D frameshift)]", "exchange rate with Pos": "14.5%"}
{"BINDER": "IPVLTRWPL (here or on the partner: biotinylated heavy chain) [P19 9-mer … (TMEM222-LOC644061 fusion)]", "exchange rate with Pos": "14.5%"}
{"BINDER": "LMAQRLLLR (here or on the partner: biotinylated heavy chain) [P97 9-mer … (FOXRED2-TXN2 fusion)]", "exchange rate with Pos": "2.7%"}
{"BINDER": "LLERNSFEV (here or on the partner: biotinylated heavy chain) [P73 9-mer … (TP53 G266E)]", "exchange rate with Pos": "2.6%"}
{"BINDER": "FLFLLLPLS (here or on the partner: biotinylated heavy chain) [P87 9-mer … (AR-Intron)]", "exchange rate with Pos": "3.1%"}
{"BINDER": "QLIAMDSAI (here or on the partner: biotinylated heavy chain) [P22 9-mer … (SLC45A3-ELK4 fusion)]", "exchange rate with Pos": "3.9%"}

Reported exchange rate with Pos, binder RAKCKFSIL (here or on the partner: biotinylated heavy chain) [P56 9-mer … (SPOP F102C)] : ____
38%

Reported exchange rate with Pos, binder RVGNCKHLK (here or on the partner: biotinylated heavy chain) [P82 9-mer … (AR-V7)] : ____
1.4%
